TESTED_TARGET: T1, Kapβ2 (untagged, GST removed) (human, UniProt Q92973-2 1-890)
T1 construct: Karyopherin β2 (Kapβ2, Transportin-1, TNPO1), human; used for ITC and turbidity assays; also called Karyopherin-β2; Transportin-1; source: E. coli BL21 (DE3), purified (GSH column, Tev cleavage, anion exchange, SEC Superdex200)
T1 sequence (looked up): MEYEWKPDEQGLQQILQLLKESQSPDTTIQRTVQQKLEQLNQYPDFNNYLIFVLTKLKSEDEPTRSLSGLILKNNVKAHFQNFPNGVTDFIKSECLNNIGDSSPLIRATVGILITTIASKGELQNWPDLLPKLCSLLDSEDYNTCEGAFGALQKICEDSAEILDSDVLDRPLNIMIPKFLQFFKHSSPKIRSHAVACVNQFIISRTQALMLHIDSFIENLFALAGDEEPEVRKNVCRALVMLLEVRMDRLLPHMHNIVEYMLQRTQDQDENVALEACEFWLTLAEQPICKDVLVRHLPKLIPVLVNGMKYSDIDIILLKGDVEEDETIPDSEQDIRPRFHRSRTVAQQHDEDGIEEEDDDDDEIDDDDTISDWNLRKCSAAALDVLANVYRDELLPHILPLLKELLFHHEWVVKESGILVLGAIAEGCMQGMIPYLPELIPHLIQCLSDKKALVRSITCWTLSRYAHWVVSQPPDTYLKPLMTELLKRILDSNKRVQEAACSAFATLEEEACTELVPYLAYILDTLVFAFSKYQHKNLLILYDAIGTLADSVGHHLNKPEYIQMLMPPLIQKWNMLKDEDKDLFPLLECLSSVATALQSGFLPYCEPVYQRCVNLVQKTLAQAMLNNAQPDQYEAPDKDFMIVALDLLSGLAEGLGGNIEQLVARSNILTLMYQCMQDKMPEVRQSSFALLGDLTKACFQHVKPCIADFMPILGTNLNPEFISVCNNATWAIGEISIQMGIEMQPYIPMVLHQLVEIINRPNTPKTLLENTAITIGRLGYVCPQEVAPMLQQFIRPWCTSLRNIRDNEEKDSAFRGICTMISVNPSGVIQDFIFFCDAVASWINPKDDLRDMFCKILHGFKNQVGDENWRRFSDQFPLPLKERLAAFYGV
ASSAY_INFO: ITC; 10 μM Kapβ2 in the cell, 100 μM or 200 μM MBP-FUS protein in the syringe; 20 mM Tris–HCl, 150 mM NaCl, 10% glycerol, 2 mM BME; 20 °C; single class of binding sites, global analysis of duplicates or triplicates
MEASUREMENT_CONTEXT: both partners purified
Assign pKd to each entry below.
Give bare numbers, as −log10 of the molar value.

BINDER: MBP-FUS(371–452) (RGG2-ZnF) (domain or fragment, UniProt P35637 371-452, looked up, also called FUS RGG2-ZnF; source: E. coli BL21 (DE3), purified (amylose resin, SEC); not shown: MBP, N-terminal, kept) RRADFNRGGGNGRGGRGRGGPMGRGGYGGGGSGGGGRGGFPSGGGGGGGQQRAGDWKCPNPTCENMNFSWRNECNQCKAPKP
pKd: 5.40
//
BINDER: MBP-FUS PY-NLS (P525L) (residues 475–526) (domain or fragment, UniProt P35637 475-526, looked up, FUS residues 475–526 with the ALS mutation P525L; also called FUS(P525L)^PY-NLS; source: E. coli BL21 (DE3), purified (amylose resin, SEC); not shown: MBP, N-terminal, kept) GRGGYDRGGYRGRGGDRGGFRGGRGGGDRGGFGPGKMDSRGEHRQDRRERLY
pKd: 6.74
//
BINDER: MBP-FUS PY-NLS (residues 475–526) (domain or fragment, UniProt P35637 475-526, looked up, FUS residues 475–526 (PY-NLS); also called FUS(475–526); WT FUS^PY-NLS; source: E. coli BL21 (DE3), purified (amylose resin, SEC); not shown: MBP, N-terminal, kept) GRGGYDRGGYRGRGGDRGGFRGGRGGGDRGGFGPGKMDSRGEHRQDRRERPY
pKd: 7.51

Turning now to a further binder:
Record summary for MBP-FUS(371–500) (RGG2-ZnF-RGG3) (domain or fragment, UniProt P35637 371-500, looked up, also called FUS RGG2-ZnF-RGG3; source: E. coli BL21 (DE3), purified (amylose resin, SEC); not shown: MBP, N-terminal, kept) RRADFNRGGGNGRGGRGRGGPMGRGGYGGGGSGGGGRGGFPSGGGGGGGQQRAGDWKCPNPTCENMNFSWRNECNQCKAPKPDGPGGGPGGSHMGGNYGDDRRGGRGGYDRGGYRGRGGDRGGFRGGRGG : reported pKd = 6.77
